molecular target: SARS-CoV-2 S1 (antigen of the Carterra SPR kinetics) (SARS-CoV-2, UniProt P0DTC2 16-685); test: Carterra SPR
observation_type: koff (s⁻¹)
Respond with the bare value in s⁻¹.

Challenge: Form field: reported koff of 1-7 (antibody, V domains shown, also called variant 1-7) VH: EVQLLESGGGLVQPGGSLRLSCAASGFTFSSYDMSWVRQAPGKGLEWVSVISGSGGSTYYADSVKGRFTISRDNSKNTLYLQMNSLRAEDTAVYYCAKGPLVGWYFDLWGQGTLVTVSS VL: QSALTQPASVSGSPGQSITISCTGTSSDFGSYNLVSWYQQHPGKAPKLMIYEGNKRPSGVSNRFSGSKSGNTASLTISGLQAEDEADYYCCSYAGSSTFVVFGGGTKLTVL
Response given: 0.17

Challenge: Form field: reported koff of 1-3 (antibody, V domains shown, also called variant 1-3) VH: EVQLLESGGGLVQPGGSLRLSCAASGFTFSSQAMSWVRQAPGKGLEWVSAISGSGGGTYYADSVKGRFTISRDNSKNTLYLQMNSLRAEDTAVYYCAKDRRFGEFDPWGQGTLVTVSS VL: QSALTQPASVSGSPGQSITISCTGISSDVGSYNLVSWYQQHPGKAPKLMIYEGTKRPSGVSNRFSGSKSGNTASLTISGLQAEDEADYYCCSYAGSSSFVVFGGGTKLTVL
Response given: 0.304

Challenge: Form field: reported koff of 1-28 (antibody, V domains shown, also called variant 1-28) VH: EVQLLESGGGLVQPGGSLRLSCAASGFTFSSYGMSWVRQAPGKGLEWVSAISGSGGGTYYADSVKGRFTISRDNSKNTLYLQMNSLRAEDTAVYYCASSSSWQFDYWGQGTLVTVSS VL: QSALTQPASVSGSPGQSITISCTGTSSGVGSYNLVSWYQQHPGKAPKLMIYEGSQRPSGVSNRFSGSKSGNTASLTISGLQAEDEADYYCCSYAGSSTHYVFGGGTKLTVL
Response given: 9.05
